Record form. Attribute: MFC. Fill in for each entry.
system: Cryptococcus neoformans; experiment: Antimicrobial activity against Cryptococcus neoformans ATCC 90113 by CLSI method; type: functional

Q: Need MFC of COc1ccc(Sc2cc3ccccc3[n+](CCCCCc3ccccc3)c2)cc1.[I-] , thanks.
A: < 20 µg/mL

Q: What does the record list as MFC for COc1ccccc1Sc1cc2ccccc2[n+](CCCCCc2ccccc2)c1.[I-] ?
A: > 20 µg/mL

Q: Reported MFC, compound COc1cccc(Sc2cc3ccccc3[n+](CCCCCc3ccccc3)c2)c1.[I-] : ____
A: > 20 µg/mL
